# PROCEDURE_DETAILS: in vitro
# SETUP_CONDITIONS: human, MT4 cells
# Description: Selectivity index, ratio of CC50 for human MT4 cells to EC50 for wild type HIV-1 IIIB infected in human MT4 cells
ASSAY_ENDPOINT: selectivity ratio
Give the figure by itself; no unit, no explanation.

Dear colleague, I am looking for the recorded selectivity ratio of the following molecule: Cc1cc(/C=C/C#N)cc(C)c1Oc1ccnc(Nc2ccc3c(c2)CN(S(N)(=O)=O)CC3)n1 743

Dear colleague, I am looking for the recorded selectivity ratio of the following molecule: Cc1cc(/C=C/C#N)cc(C)c1Oc1ccnc(Nc2ccc3c(c2)C(=O)NCC3)n1 1220

Dear colleague, I am looking for the recorded selectivity ratio of the following molecule: Cc1nc2cc(Nc3nccc(Oc4c(C)cc(/C=C/C#N)cc4C)n3)ccc2o1 129

Dear colleague, I am looking for the recorded selectivity ratio of the following molecule: Cc1cc(/C=C/C#N)cc(C)c1Oc1ccnc(Nc2ccc3c(c2)CN(S(C)(=O)=O)CC3)n1 791

Dear colleague, I am looking for the recorded selectivity ratio of the following molecule: Cc1cc(/C=C/C#N)cc(C)c1Oc1ccnc(Nc2ccc3c(c2)COC3)n1 7440

Dear colleague, I am looking for the recorded selectivity ratio of the following molecule: COP(=O)(OC)N1CCc2cc(Nc3nccc(Oc4c(C)cc(/C=C/C#N)cc4C)n3)ccc2C1 515

Dear colleague, I am looking for the recorded selectivity ratio of the following molecule: Cc1cc(/C=C/C#N)cc(C)c1Oc1ccnc(Nc2ccc3c(c2)C(=O)NC3)n1 16000

Dear colleague, I am looking for the recorded selectivity ratio of the following molecule: Cc1cc(/C=C/C#N)cc(C)c1Oc1ccnc(Nc2ccc3c(c2)OCO3)n1 5260

Dear colleague, I am looking for the recorded selectivity ratio of the following molecule: Cc1cc(/C=C/C#N)cc(C)c1Oc1ccnc(Nc2ccc3nccn3c2)n1 14600

Dear colleague, I am looking for the recorded selectivity ratio of the following molecule: Cc1cc(/C=C/C#N)cc(C)c1Oc1ccnc(Nc2ccc3nsnc3c2)n1 2850

Dear colleague, I am looking for the recorded selectivity ratio of the following molecule: Cc1cc(/C=C/C#N)cc(C)c1Oc1ccnc(Nc2ccc3nc(C#N)sc3c2)n1 1330

Dear colleague, I am looking for the recorded selectivity ratio of the following molecule: Cc1cc(/C=C/C#N)cc(C)c1Oc1ccnc(Nc2ccc3cnsc3c2)n1 4140

Dear colleague, I am looking for the recorded selectivity ratio of the following molecule: Cc1cc(/C=C/C#N)cc(C)c1Oc1ccnc(Nc2ccc3sccc3c2)n1 221

Dear colleague, I am looking for the recorded selectivity ratio of the following molecule: Cc1cc(/C=C/C#N)cc(C)c1Oc1ccnc(Nc2ccc3occc3c2)n1 31100

Dear colleague, I am looking for the recorded selectivity ratio of the following molecule: Cc1cc(/C=C/C#N)cc(C)c1Oc1ccnc(Nc2ccc3c(c2)OC(F)(F)O3)n1 966

Dear colleague, I am looking for the recorded selectivity ratio of the following molecule: Cc1cc(/C=C/C#N)cc(C)c1Oc1ccnc(Nc2ccc(N3CCN(S(C)(=O)=O)CC3)c(C#N)c2)n1 7170

----------
# PROCEDURE_DETAILS: in vitro
# SETUP_CONDITIONS: human, MT4 cells
# Description: Selectivity index, ratio of CC50 for human MT4 cells to EC50 for HIV-1 RES056 harboring RT K103N/Y181C mutant infected in human MT4 cells
ASSAY_ENDPOINT: selectivity ratio

Dear colleague, I am looking for the recorded selectivity ratio of the following molecule: Cn1c(Cn2ccc(C(F)(F)F)c(Oc3cc(Cl)cc(C#N)c3)c2=O)n[nH]c1=O > 931

Dear colleague, I am looking for the recorded selectivity ratio of the following molecule: Cc1cc(/C=C/C#N)cc(C)c1Oc1ccnc(Nc2ccc3c(c2)OC(F)(F)O3)n1 4

Dear colleague, I am looking for the recorded selectivity ratio of the following molecule: Cc1cc(/C=C/C#N)cc(C)c1Oc1ccnc(Nc2ccc3scnc3c2)n1 506

Dear colleague, I am looking for the recorded selectivity ratio of the following molecule: Cc1cc(/C=C/C#N)cc(C)c1Oc1ccnc(Nc2ccc3c(c2)CN(C(=O)CS(C)(=O)=O)CC3)n1 1

Dear colleague, I am looking for the recorded selectivity ratio of the following molecule: Cc1cc(/C=C/C#N)cc(C)c1Oc1ccnc(Nc2ccc3nncn3c2)n1 182

Just for reference, ChEMBL document CHEMBL6087416 is where these values come from.
